As shown below, each of these molecules has a reported FXR max. rel. act. value.
biological target: human FXR:retinoid X receptor (RXR) heterodimer (Homo sapiens, UniProt Q96RI1); construct: pcDNA3-hFXR[32] and pSG5-hRXR[33] served for receptor overexpression in the full-length FXR assay; expressed in transfected cells; host or cells: HeLa; experiment: Full-length FXR reporter gene assay (BSEP response element) in HeLa cells; type: cell-based; conditions: Supplementary Table 1; relative to GW4064 at 3 µM; n ≥ 2
Sequence (P19793 whole entry): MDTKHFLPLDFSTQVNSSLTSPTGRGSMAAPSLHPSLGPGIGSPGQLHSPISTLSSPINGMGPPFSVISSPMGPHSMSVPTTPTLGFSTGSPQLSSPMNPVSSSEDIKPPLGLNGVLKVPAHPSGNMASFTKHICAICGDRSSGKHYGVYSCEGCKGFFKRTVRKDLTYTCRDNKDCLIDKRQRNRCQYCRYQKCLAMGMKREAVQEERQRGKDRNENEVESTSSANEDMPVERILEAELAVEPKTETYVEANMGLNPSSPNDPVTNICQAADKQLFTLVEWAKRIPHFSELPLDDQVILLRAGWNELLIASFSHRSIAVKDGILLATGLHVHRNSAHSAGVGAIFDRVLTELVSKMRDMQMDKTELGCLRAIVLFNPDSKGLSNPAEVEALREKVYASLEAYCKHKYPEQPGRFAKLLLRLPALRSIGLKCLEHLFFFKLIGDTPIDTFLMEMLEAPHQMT
Sequence (Q96RI1 whole entry): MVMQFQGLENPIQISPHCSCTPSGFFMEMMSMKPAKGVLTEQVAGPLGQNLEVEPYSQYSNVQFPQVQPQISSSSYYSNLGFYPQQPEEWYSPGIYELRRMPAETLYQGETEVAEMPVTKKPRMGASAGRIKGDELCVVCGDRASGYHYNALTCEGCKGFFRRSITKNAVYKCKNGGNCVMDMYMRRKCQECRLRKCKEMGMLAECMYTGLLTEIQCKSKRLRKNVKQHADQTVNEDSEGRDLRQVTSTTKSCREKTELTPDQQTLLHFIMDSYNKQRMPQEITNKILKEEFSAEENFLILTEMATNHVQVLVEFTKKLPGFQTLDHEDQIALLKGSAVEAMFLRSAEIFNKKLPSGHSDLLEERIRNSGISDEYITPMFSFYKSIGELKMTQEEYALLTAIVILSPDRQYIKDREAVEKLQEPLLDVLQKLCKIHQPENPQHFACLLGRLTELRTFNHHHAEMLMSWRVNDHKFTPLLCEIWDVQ
Report the figure along with its unit, number first.

Solved cases below.
Cc1cccc2c1C=C(C(=O)Nc1ccccc1C(=O)Nc1cccc(CCC(=O)O)c1)CO2 | 11 ± 1%
COc1cccc2c1OCC(C(=O)Nc1ccccc1C(=O)Nc1cccc(CCC(=O)O)c1)=C2 | 14 ± 1%
Cc1ccc2c(c1)C=C(C(=O)Nc1ccccc1C(=O)Nc1cccc(CCC(=O)O)c1)CO2 | 12 ± 1%
O=C(O)CCc1cccc(NC(=O)c2ccccc2NC(=O)C2=C(Cl)c3ccccc3OC2)c1 | 16 ± 1%

Could you now look at the following molecule, please?
Query string: Name the recorded FXR max. rel. act. for `O=C(O)CCc1cccc(NC(=O)c2ccccc2NC(=O)C2=Cc3ccccc3OC2)c1` .
Result string: 14 ± 1%
